# tgt: human vasopressin V2 receptor subtype (Homo sapiens)
# Construct: host or cells: CHO cells, stably transfected (pZeoSV vector)
# Sequence (P30518 whole entry): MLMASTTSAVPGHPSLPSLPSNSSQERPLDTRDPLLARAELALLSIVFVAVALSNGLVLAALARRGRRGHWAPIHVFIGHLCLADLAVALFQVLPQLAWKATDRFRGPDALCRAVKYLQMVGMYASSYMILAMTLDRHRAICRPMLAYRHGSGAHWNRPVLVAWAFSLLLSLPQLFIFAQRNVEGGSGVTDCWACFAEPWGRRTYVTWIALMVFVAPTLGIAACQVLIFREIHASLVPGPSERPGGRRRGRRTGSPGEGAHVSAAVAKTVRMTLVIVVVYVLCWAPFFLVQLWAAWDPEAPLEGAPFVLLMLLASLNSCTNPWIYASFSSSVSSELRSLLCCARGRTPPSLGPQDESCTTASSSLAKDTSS
# measurement.protocol: Vasopressin binding in CHO cell membranes expressing human vasopressin V2 subtype receptors ([3H]arginine vasopressin radioligand binding)
# condition.summary: 100 nM
Binary classification by inhibition at 0.1 µM, with 10% as an inclusive lower bound for criterion met; all other cases are criterion not met.

Example entries and their recorded answers appear below.
>>> label_value("Cc1cc(C(=O)N2Cc3ccc(C(=O)N(C)CCc4ccncc4)n3Cc3ccccc32)ccc1-c1ccccc1C(F)(F)F")
"criterion met"
>>> label_value("COc1cccc(-c2ccc(C(=O)N3Cc4ccc(C(=O)NCc5ccccn5)n4Cc4ccccc43)cc2C)c1")
"criterion met"
>>> label_value("COc1ccccc1-c1ccc(C(=O)N2Cc3ccc(C(=O)N(C)CCc4ccncc4)n3Cc3ccccc32)cc1C")
"criterion not met"
>>> label_value("Cc1cc(C(=O)N2Cc3ccc(C(=O)NCc4ccncc4)n3Cc3ccccc32)ccc1-c1ccccc1C(F)(F)F")
"criterion not met"
>>> label_value("COc1ccccc1-c1ccc(C(=O)N2Cc3ccc(C(=O)N(C)CCc4ccncc4)n3Cc3ccccc32)cc1OC")
"criterion not met"

State whether the measured inhibition at 0.1 µM reaches 10%, counting equality as reaching it, for `COc1cc(-c2ccccc2C)c(Cl)cc1C(=O)N1Cc2ccc(C(=O)NCc3ccccn3)n2Cc2ccccc21`
criterion met

Sourced from patent US7064120B2
